- System: HS 578T breast
- assay-comment: NCI tumour cell line growth inhibition, 48 h
metric-name: TGI

The examples below pair each entry with its known result.
Kindly note the recorded TGI for "c1csc(-c2nccc3c2[nH]c2ccccc23)c1" , which is > 100 µM

// "Cc1c[nH]c(C(=O)O)c1-c1cccn1-c1ccc(Cl)cc1[N+](=O)[O-]" : TGI value = > 100 µM

Short answer for Cn1c2c(c3ccccc31)CCN=C2C1CCCOC1=O (stereo not given) : TGI was > 100 µM

"O=C1c2c(Br)sc(Br)c2[C@@H](Cl)[C@H]1Cl" yielded TGI of > 100 µM

Form field TGI, entry "COc1cccc(-c2nn(-c3ccccc3)cc2-c2ccnc(NCCCNC(=O)c3cccc(C(F)(F)F)c3)c2)c1" : 36.9 µM

response.value for "Cc1ccc(C(=O)NCCCOc2ccc(N3C(N)=NC(N)=NC3(C)C)cc2Cl)cc1S(=O)(=O)F" (field: TGI) = > 100 µM

Item: C[C@@H](CC(=O)O)OC1OC(COC(=O)C(C)(C)C)C(OC(=O)C(C)(C)C)C(OC(=O)C(C)(C)C)C1OC(=O)C(C)(C)C (stereo not given in full) | TGI: > 100 µM

// sample "O=C1C[C@H](COCc2ccccc2)NC(=O)C[C@H](COCc2ccccc2)NC(=O)C[C@H](COCc2ccccc2)N1" , its TGI was > 100 µM

So for "O=S(=O)(NCCNc1nccc(-c2c(-c3ccc(F)c(O)c3)nc3sccn23)n1)c1ccc(Cl)cc1" , the logged TGI turned out to be 13.3 µM

Just so you know, measured TGI for "CC(C)(C)OC(=O)NCCCCn1c2c(c3ccccc3c1=O)C(=O)c1ccccc1-2" came out at 52.8 µM

More entries:
Lab note: measured TGI of "CCOC(=O)c1nc2ccccc2nc1NCc1ccc(OC)c(OC)c1" was > 100 µM

// TGI value for "O=C(O)c1nc2ccc(Cl)cc2[nH]c1=O" : > 100 µM

The reported value for "O=C(Nc1cccc(-n2cc(-c3ccncc3)c(-c3ccc(O)c(Cl)c3)n2)c1)c1ccc2c(c1)OCCO2" in terms of TGI is > 100 µM

// TGI value for CC[C@@]1(OC(=O)C(N)CCCCN)C(=O)OCc2c1cc1n(c2=O)Cc2cc3ccccc3nc2-1 (stereo not given in full) : > 100 µM

Documented TGI of "Cc1ccc(S(=O)(=O)OCC#CCOS(=O)(=O)c2ccc(C)cc2)cc1" : 14.2 µM
